# Test system: A498 renal
# Experiment description: NCI tumour cell line growth inhibition, 48 h
Measured attribute: TGI

{"Molecule": "CS(=O)(=O)OCCN1CCN(C(=O)c2cccc3c(Nc4ccc(S(N)(=O)=O)cc4)c4ccccc4nc23)CC1", "Result": "> 100 µM"}
{"Molecule": "O=c1[nH]c2ccccc2nc1/C=C(\\O)C(F)F", "Result": "> 100 µM"}
{"Molecule": "O=c1c2ccccc2n2nnc3ccc(NCCCNCCNCCCNc4ccc5nnn6c7ccccc7c(=O)c4c56)c1c32", "Result": "> 37 µM"}
{"Molecule": "CC1(C)[C@@H](Cn2cnc3c(=O)[nH]c(N)nc32)CC[C@@]1(C)CO", "Result": "> 100 µM"}
{"Molecule": "CCc1ccc(-c2ccc(=O)n(-c3ccc(S(N)(=O)=O)cc3)n2)cc1", "Result": "> 61.4 µM"}
{"Molecule": "O=C1O[C@H](C(Cl)(Cl)Cl)N2CCCC12 (some centres not stated)", "Result": "> 100 µM"}
{"Molecule": "NC1C2C(CC(=O)O)OCC=C3CN4CCC1(C(=O)C(=O)O)C4CC32 (configuration not stated)", "Result": "> 100 µM"}

----------
# Test system: NCI-H460 lung
# Experiment description: NCI tumour cell line growth inhibition, 48 h
TGI overview

{"Compound": "COc1ccc(C[C@H](N)C(=O)N2C[C@H](CO)C[C@H](n3cnc4c(N(C)C)ncnc43)C2)cc1", "TGI": "> 100 µM"}
{"Compound": "O=C(O)CNS(=O)(=O)c1ccc(NC(=O)c2ccc(F)cc2)cc1", "TGI": "> 100 µM"}
{"Compound": "C=C(CC(=O)Nc1ccc(C(=O)OC)o1)C(=O)OC", "TGI": "> 100 µM"}
{"Compound": "Cc1cc(N=Cc2c(CO)cnc(C)c2O)c(N=Cc2c(CO)cnc(C)c2O)cc1C.[Zn]", "TGI": "> 100 µM"}
{"Compound": "Oc1ccc2c(c1)CC[N+]1=C2CCC2CCCC21 (configuration not stated)", "TGI": "> 100 µM"}
{"Compound": "CCOC(=O)c1c2c(n3ccc(NC(=O)OC(C)(C)C)cc13)C(=O)c1ncccc1C2=O", "TGI": "0.123 µM"}
{"Compound": "COc1cc([C@@H]2c3cc4c(cc3C(Br)[C@H]3COC(=O)[C@H]23)OCO4)cc(OC)c1OC (some centres not stated)", "TGI": "0.547 µM"}
{"Compound": "CCCCCCCCCCCCCC[P+](CCCCCC)(CCCCCC)CCCCCC", "TGI": "1.22 µM"}
{"Compound": "CCOC(=O)c1cc2c(n1Cc1cc(OC)cc(OC)c1)-c1oncc1CCC2", "TGI": "> 100 µM"}
{"Compound": "Cc1nc2cncc(C#Cc3cncc(C(=O)Nc4ccc(CN5CCN(C)CC5)c(C(F)(F)F)c4)c3)c2nc1C", "TGI": "6.34 µM"}
{"Compound": "CCOC(=O)CCc1c(C(=O)OCC)[nH]c(/C=C2\\NC(=O)C(C)=C2CC)c1C", "TGI": "> 100 µM"}
{"Compound": "CC1CC[C@@]2(OC1)O[C@H]1C[C@H]3[C@@H]4CC[C@H]5C[C@@H](OC6OC(CO)C(OC7OC(CO)C(OC8OC(CO)C(O)C(OC9OC(C)C(OC%10OC(C)C(O)C(O)C%10O)C(O)C9O)C8OC8OCC(O)C(O)C8O)C(O)C7O)C(O)C6O)CC[C@]5(C)[C@H]4CC(=O)[C@]3(C)[C@H]1[C@@H]2C (some centres not stated)", "TGI": "32.9 µM"}

----------
Some molecules, each annotated with its measured TGI.
# Tested on: NCI-H460 lung
# Experiment description: NCI tumour cell line growth inhibition, 48 h

{"Molecule": "NS(=O)(=O)c1ccc(C2C3=C(CCCC3=O)OC3=C2C(=O)c2ccccc2C3=O)cc1 (stereo not drawn)", "Tested system": "NCI-H460 lung", "TGI": "2.12 µM"}
{"Molecule": "N#Cc1c(N2CCCC2)ncn(Cc2ccccc2)c1=S", "Tested system": "NCI-H460 lung", "TGI": "> 100 µM"}
{"Molecule": "O=[N+]([O-])c1cc(O)c(O)cc1-c1cn2ccsc2n1", "Tested system": "NCI-H460 lung", "TGI": "> 100 µM"}
{"Molecule": "COc1c(OC)c(O)c2c(=O)c(OC)c(-c3ccc4c(c3)OCO4)oc2c1O", "Tested system": "NCI-H460 lung", "TGI": "> 100 µM"}
{"Molecule": "CC/C=C\\C/C=C\\C[C@H](O)C/C=C1/C(=O)C=C[C@H]1C/C=C\\CCC(=O)OC", "Tested system": "NCI-H460 lung", "TGI": "> 8.25 µM"}
{"Molecule": "COCN1CCN=c2c1c1c3c(c4ccccc4n23)CCC1", "Tested system": "NCI-H460 lung", "TGI": "> 100 µM"}
{"Molecule": "Cc1cc(Nc2ccc(N=Nc3ccc(O)c4ncccc34)cc2)nc(C)n1", "Tested system": "NCI-H460 lung", "TGI": "38 µM"}
{"Molecule": "COc1ccc(Oc2nc3ccc(C(F)(F)F)cc3nc2-c2ccccc2)cc1", "Tested system": "NCI-H460 lung", "TGI": "> 100 µM"}
{"Molecule": "COC(=O)Nc1nc2ccc(Oc3ccc(NC(=O)Nc4cccc(Br)c4)cc3)cc2[nH]1", "Tested system": "NCI-H460 lung", "TGI": "> 13.5 µM"}
{"Molecule": "CCN(CC)c1ccc(N=C2C=CC(=O)c3ncccc32)c(C)c1", "Tested system": "NCI-H460 lung", "TGI": "21.8 µM"}
{"Molecule": "CC1=C(C)CC2(SC1)C(=O)c1ccccc1C2=O", "Tested system": "NCI-H460 lung", "TGI": "> 100 µM"}
{"Molecule": "O=C(NCCCCNCCCNC(=O)c1ccccc1)c1ccccc1", "Tested system": "NCI-H460 lung", "TGI": "> 100 µM"}
{"Molecule": "O=C(CC1(O)C(=O)Nc2ccc(Br)cc21)c1ccc(Cl)cc1 (stereo not drawn)", "Tested system": "NCI-H460 lung", "TGI": "> 100 µM"}
{"Molecule": "COc1ccc(C[C@H](N)C(=O)N2C[C@H](CO)C[C@H](n3ccc(=O)[nH]c3=O)C2)cc1", "Tested system": "NCI-H460 lung", "TGI": "> 100 µM"}
{"Molecule": "Fc1ccc(C2CC(c3cccc(Nc4ccncc4)c3)=NN2c2cc(Cl)cc(Cl)c2)cc1 (stereo not drawn)", "Tested system": "NCI-H460 lung", "TGI": "3.55 µM"}
{"Molecule": "O=C(Nc1ncc(Cc2ccccc2)s1)c1ccc2c(c1)OCCCO2", "Tested system": "NCI-H460 lung", "TGI": "> 100 µM"}
{"Molecule": "OCC(O)C1OC2CC1Nc1ccccc1N2 (stereo not drawn)", "Tested system": "NCI-H460 lung", "TGI": "> 100 µM"}
{"Molecule": "COc1ccc2c(c1)nc1n2C(N)=Nc2ccccc2S1", "Tested system": "NCI-H460 lung", "TGI": "> 100 µM"}
{"Molecule": "CS(=O)(=O)N(CCC#N)c1ccc(/C=N/NC(=O)CC(=O)Nc2cccc(Cl)c2)cc1", "Tested system": "NCI-H460 lung", "TGI": "> 100 µM"}
{"Molecule": "N=S(=O)(c1ccccc1)c1ccccc1[N+](=O)[O-] (stereo not drawn)", "Tested system": "NCI-H460 lung", "TGI": "> 100 µM"}
{"Molecule": "COc1cc2c(c(OC)c1OC)-c1ccc(NNC(=S)N(Cc3cccc(C[N+](Cc4cccc(CNC56CC7CC(CC(C7)C5)C6)c4)(Cc4cccc(CNC56CC7CC(CC(C7)C5)C6)c4)Cc4cccc(CN(C(=S)NNc5ccc6c(cc5=O)[C@@H](NC(C)=O)CCc5cc(OC)c(OC)c(OC)c5-6)C56CC7CC(CC(C7)C5)C6)c4)c3)C34CC5CC(CC(C5)C3)C4)c(=O)cc1[C@@H](NC(C)=O)CC2 (stereo partly drawn)", "Tested system": "NCI-H460 lung", "TGI": "3.79 µM"}
{"Molecule": "O=CN1N=C(c2ccc(Nc3ccnc4cc(Cl)ccc34)cc2)CC1c1ccccc1 (stereo not drawn)", "Tested system": "NCI-H460 lung", "TGI": "> 100 µM"}
{"Molecule": "COc1ccc(-c2nsc3c2NC(=O)CC3c2ccc3c(c2)OCO3)cc1 (stereo not drawn)", "Tested system": "NCI-H460 lung", "TGI": "> 100 µM"}
{"Molecule": "Cc1ccc(C(=O)O/N=C2/CCCCC2CN(C)C)cc1 (stereo not drawn)", "Tested system": "NCI-H460 lung", "TGI": "> 100 µM"}
{"Molecule": "CC(C)(C)OC(=O)NC(Cc1ccc(O)cn1)C(N)=O (stereo not drawn)", "Tested system": "NCI-H460 lung", "TGI": "> 100 µM"}
{"Molecule": "Cc1cccc2nc3cccc(C(=O)NCCC[N+](C)(CCCNC(=O)c4cccc5nc6cccc(C)c6nc45)Cc4c([N+](=O)[O-])ncn4C)c3nc12", "Tested system": "NCI-H460 lung", "TGI": "257 µM"}
{"Molecule": "O=C(Cn1c(=O)c(-c2ccccc2)nc2ccccc21)c1cccnc1", "Tested system": "NCI-H460 lung", "TGI": "> 100 µM"}
{"Molecule": "CSc1ccc(-c2cc(-c3ccc(NC(=O)CCCN4CCCC4)cc3)nc(-c3ccc(NC(=O)CCCN4CCCC4)cc3)c2)cc1", "Tested system": "NCI-H460 lung", "TGI": "3.28 µM"}
